Tested on: CCRF-CEM
Test: NCI tumour cell line growth inhibition, 48 h
Calls of active or inactive are those of the source. No stated cut-off is given here; in the data, active = GI50 up to about 1.1 µM and inactive = higher.
value type: GI50

Input line: GI50 for Cc1ccc2c(O)cc(-c3ccc(Cl)cc3)nc2n1 ?
Output line: 7.52 µM (inactive)

Input line: For Cc1nc2ccccc2n1Cc1nnc2n1N=C(c1ccccc1)CS2 then?
Output line: 27.9 µM (inactive)

Input line: For CCOC(=O)[C@]12C3C=CC(C3)C1C(=O)C1OC12 (stereo partly specified) then?
Output line: > 100 µM (inactive)

Input line: For O=C1CC2(CCN(CC3COc4ccccc4O3)CC2)C(=O)N1N1CCCCCC1 (stereo unspecified) then?
Output line: 29.4 µM (inactive)

Input line: For Cc1cc(C)c(O)c(Cc2cccc(Cc3cc(C)cc(C)c3O)c2O)c1 then?
Output line: 35.5 µM (inactive)

Input line: For CSc1c(C(=O)Nc2ccccc2)c(N)nn1-c1ccccc1 then?
Output line: > 100 µM (inactive)

Input line: For COc1ccc(C2C=C(c3ccc(C)cc3)N(c3ccc(OC)cc3[N+](=O)[O-])C3C(=O)OC(=O)C23)c(OC)c1 (stereo unspecified) then?
Output line: 35.1 µM (inactive)

Input line: For CCCCCCCC1C(C)c2c([nH]c3ccccc23)C2C(=O)N(c3ccc(OC)cc3)C(=O)C21 (stereo unspecified) then?
Output line: 2.61 µM (inactive)

Input line: For CCCCC(C)/C=C/C(O)=C1\C(=O)O/C(=C\C(=O)O)C1=O (stereo unspecified) then?
Output line: > 100 µM (inactive)

Input line: For Cc1cc2c3c(ccc4[nH]cc(c43)CN2c2ccc(NS(C)(=O)=O)cc2)n1 then?
Output line: 8.41 µM (inactive)

Input line: For CC1=NNC(=O)C2CCC(=O)N12 (stereo unspecified) then?
Output line: > 100 µM (inactive)
